Please go through the items and note down their apparent Kd (screen).
- target-of-assay: T1, TNFR1 (Homo sapiens, UniProt P19438)
- T1 chain: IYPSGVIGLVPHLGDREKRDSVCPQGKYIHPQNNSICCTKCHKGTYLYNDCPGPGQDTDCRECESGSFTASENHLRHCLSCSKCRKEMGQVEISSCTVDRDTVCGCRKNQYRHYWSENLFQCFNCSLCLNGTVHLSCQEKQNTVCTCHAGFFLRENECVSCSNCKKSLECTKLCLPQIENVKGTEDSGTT
- test: yeast display SC50
Report the figure in nM without appending any unit label.

What the record says about E43L (designed binder) MTLQELLREEALRRAEAEAFRYALELLAEKFPEQKEYLLDLALEIESQIRSLSGVDVEDVRKFLDKEWAWVKELLAEHPAELAEVEAARAARLAELRAEVEAKVAA : apparent Kd (screen) is 0.869

What the record says about E101K (designed binder) MTLQELLREEALRRAEAEAFRYALELLAEKFPEQKEYLLDLAEEIESQIRSLSGVDVEDVRKFLDKEWAWVKELLAEHPAELAEVEAARAARLAELRAEVKAKVAA : apparent Kd (screen) is 0.653

What the record says about L7Y (designed binder) MTLQELYREEALRRAEAEAFRYALELLAEKFPEQKEYLLDLAEEIESQIRSLSGVDVEDVRKFLDKEWAWVKELLAEHPAELAEVEAARAARLAELRAEVEAKVAA : apparent Kd (screen) is 12.5

What the record says about A98H (designed binder) MTLQELLREEALRRAEAEAFRYALELLAEKFPEQKEYLLDLAEEIESQIRSLSGVDVEDVRKFLDKEWAWVKELLAEHPAELAEVEAARAARLAELRHEVEAKVAA : apparent Kd (screen) is 0.593
